Assay: Whole blood stability, mouse
Type: in vitro ADME
Details: 60 min
observedProperty: Whole Blood Stability % Remaining at 37° C. Mouse (%)

Would you please look over these solved cases?
> print(dat)
                                   compound  resultnumber
1  COC(=O)[C@H]1Cc2c([nH]c3ccccc23)[C@H](c2ccc(C(=O)OCC3(C)CC3)cc2)N1C(=O)CCl [Compound 84]           0.0
2  CN(C)C(=O)c1ccc([C@H]2c3[nH]c4ccccc4c3C[C@H](C(=O)N(C)C)N2C(=O)CCl)cc1 [Compound 38]          62.0
3  COC(=O)[C@H]1Cc2c([nH]c3ccccc23)[C@H](c2ccc(C(=O)OCC3CCCCC3)cc2)N1C(=O)CCl [Compound 89]           0.0
4  CC(C)N(C(=O)[C@H]1Cc2c([nH]c3ccccc23)[C@H](c2ccc(C(=O)N(C)C)cc2)N1C(=O)CCl)C(C)C [Compound 39]          60.4
5  C#CCOC(=O)c1ccc([C@@H]2c3[nH]c4ccccc4c3C[C@H](C(=O)OC)N2C(=O)CCl)cc1 [BXa]           0.0

(a) COC(=O)[C@H]1Cc2c([nH]c3ccccc23)[C@H](c2ccc(C(=O)OCC3CCC3)cc2)N1C(=O)CCl [Compound 85]
(b) C[C@H]1Cc2c([nH]c3ccccc23)[C@H](c2ccc(C3CCOCC3)cc2)N1C(=O)CCl [Compound 112]
Response body: label of entry with the larger Whole Blood Stability % Remaining at 37° C. Mouse; valid values a , b . Answer = label. b
(b: 69.3%, a: 0.0%)

* * *

Experiment: Whole blood stability, human
Type: in vitro ADME
Details: 60 min
observedProperty: Whole Blood Stability % Remaining at 37° C. Human (%)

> print(dat)
                                   molecule  resultnumber
1  COC(=O)[C@H]1Cc2c([nH]c3ccccc23)[C@H](c2ccc(OC(=O)C(C)(C)C)cc2)N1C(=O)CCl [Compound 13]          29.2

(I) COC(=O)[C@H]1Cc2c([nH]c3ccccc23)[C@@H](c2ccc(C(=O)NCCN3CCOCC3)cc2)N1C(=O)CCl [Example 27a]
(II) COC(=O)[C@H]1Cc2c([nH]c3ccccc23)[C@H](c2ccc(OC(C)=O)cc2)N1C(=O)CCl [Compound 12]
(III) COC(=O)[C@H]1Cc2c([nH]c3ccccc23)[C@H](c2ccc(C(=O)N(C)C)cc2)N1C(=O)CCl [Compound 8]
(IV) COC(=O)C1CCC([C@H]2c3[nH]c4ccccc4c3C[C@H](C(=O)N(C)C)N2C(=O)CCl)CC1 (some centres unmarked) [Compound 41]
# sort list by recorded Whole Blood Stability % Remaining at 37° C. Human, greatest to least Provide the ranking by listing each label in its place in the requested order. IV, I, III, II
(IV: 100.0%, I: 40.9%, III: 26.5%, II: 0.1%)

* * *

Assay: Whole blood stability, mouse
Assay type: in vitro ADME
Conditions: 30 min
observedProperty: Whole Blood Stability % Remaining at 37° C. Mouse (%)

> print(dat)
                                   compound  resultnumber
1  COC(=O)[C@H]1Cc2c([nH]c3ccccc23)[C@H](c2ccc(C(=O)OCC3CCCC3)cc2)N1C(=O)CCl           0.0

(1) C=CCOC(=O)c1ccc([C@H]2c3[nH]c4ccccc4c3C[C@H](C(=O)OC)N2C(=O)CCl)cc1
(2) CC(C)(C)OC(=O)c1ccc([C@H]2c3[nH]c4ccccc4c3C[C@H](CO)N2C(=O)CCl)cc1 [Example 63a]
(3) COC(=O)[C@H]1Cc2c([nH]c3ccccc23)[C@H](c2ccc(N[C@]34CC5C[C@H](C[C@H](C5)C3)C4)cc2)N1C(=O)CCl
Rank descending by Whole Blood Stability % Remaining at 37° C. Mouse. In plain terms: list the labels in the order you were asked to. 3, 2, 1
(3: 61.9%, 2: 4.5%, 1: 0.0%)

(P) COC(=O)c1ccc([C@@H]2c3[nH]c4ccc(Cl)cc4c3C[C@H](C(=O)OC)N2C(=O)CCl)cc1
(Q) COC(=O)[C@H]1Cc2c([nH]c3ccccc23)[C@H](c2ccc(C(=O)NCCNC(=O)OC(C)(C)C)cc2)N1C(=O)CCl
# query: argmin of Whole Blood Stability % Remaining at 37° C. Mouse over P and Q API: response body contains the label of the selected item. P
(P: 0.0%, Q: 84.1%)

(A) COC(=O)C1CCC([C@H]2c3[nH]c4ccccc4c3C[C@H](C(=O)N(C)C)N2C(=O)CCl)CC1 (some centres unmarked)
(B) CNC(=O)c1ccc([C@H]2c3[nH]c4ccccc4c3C[C@H](C(=O)OC)N2C(=O)CCl)cc1
(C) CNS(=O)(=O)c1ccc([C@H]2c3[nH]c4ccccc4c3C[C@H](C(=O)OC)N2C(=O)CCl)cc1
(D) COC(=O)[C@H]1Cc2c([nH]c3ccccc23)[C@H](c2ccc(S(=O)(=O)N3CC(O)C3)cc2)N1C(=O)CCl
Endpoint returns the given compounds ordered by ascending Whole Blood Stability % Remaining at 37° C. Mouse. Use the labels to give the ranking in the order requested. A, D, C, B

(P) CC(C)(C)OC(=O)[C@H]1Cc2c([nH]c3ccccc23)[C@H](c2ccc([N+](=O)[O-])cc2)N1C(=O)CCl
(Q) COC(=O)[C@H]1Cc2c([nH]c3ccc(Br)cc23)[C@H](c2ccc(C(=O)OCC3CC3)cc2)N1C(=O)CCl
Identify the entry with the larger Whole Blood Stability % Remaining at 37° C. Mouse. Options: P and Q Answer format: the label of the selected item. P
(P: 56.9%, Q: 0.0%)

* * *

Experiment: PK profile, IV plasma concentration and PK parameters
Format: in vivo
Details: Balb/C nude, mouse, iv, 5 mg/kg, 30% Kolliphor EL in water (Table 10b)
observedProperty: MRT inf (min)
Please reply with the bare figure in min and do not write the unit itself.

Consider the compound C#CC(=O)N1[C@@H](CCCC)Cc2c([nH]c3c(F)cc(F)cc23)[C@@H]1c1ccc(F)cc1 [Compound 156] and give its measured MRT inf. 33.2

* * *

System: MiaPaCa-2
Experiment: Cell viability assay (CellTiter Glo), pancreatic carcinoma MiaPaCa-2
Type: cell-based
Conditions: Homo sapiens, MIA PaCa-2; pancreatic carcinoma, 96 hours, CellTiter Glo; read-out: IC50 MiaPaCa-2
observedProperty: IC50 (nM)

> print(dat)
                                   molecule  resultnumber
1  CN(C)C(=O)[C@H]1Cc2c([nH]c3ccccc23)[C@H](c2ccc([Si](C)(C)C)cc2)N1C(=O)CCl           805

(a) COC(=O)[C@H]1Cc2c([nH]c3ccccc23)[C@@H](c2ccc(C(=O)NCCN3CCOCC3)cc2)N1C(=O)CCl [Example 27a]
(b) COCCN(C(=O)c1ccc([C@H]2c3[nH]c4ccccc4c3C[C@H](C(=O)N(C)C)N2C(=O)CCl)cc1)C(C)(C)C
(c) COC(=O)[C@H]1Cc2c([nH]c3ccccc23)[C@H](c2ccc(C(=O)NCCN)cc2)N1C(=O)CCl
// ranking: key=IC50, reverse=True Answer format: the labels, ordered as requested. a, c, b
(a: 3000 nM, c: 1320 nM, b: 243 nM)

* * *

Test: Whole blood stability, human
Format: in vitro ADME
Settings: 30 min
observedProperty: Whole Blood Stability % Remaining at 37° C. Human (%)

Here is how some compounds turned out for Whole Blood Stability % Remaining at 37° C. Human.
> print(dat)
                                inputsmiles  uom  resultnumber
1  C#CCOC(=O)c1ccc([C@@H]2c3[nH]c4ccccc4c3C[C@H](C(=O)OC)N2C(=O)CCl)cc1    %          95.7
2  COC(=O)[C@H]1Cc2c([nH]c3ccccc23)[C@H](c2ccc(C(=O)N3CCC(O)CC3)cc2)N1C(=O)CCl    %           0.1
3  [2H]C([2H])([2H])OC(=O)[C@H]1Cc2c([nH]c3ccccc23)[C@H](c2ccc(C(=O)OC)cc2)N1C(=O)CCl    %          63.8
4  COC(=O)c1ccc([C@H]2c3c(c4ccccc4n3C)C[C@H](C(=O)OC)N2C(=O)CCl)cc1    %          28.0
5  COC(=O)[C@H]1Cc2c([nH]c3ccccc23)[C@H](c2ccc(C(=O)OCC3(C)CC3)cc2)N1C(=O)CCl    %          87.7

(P) C[C@H]1Cc2c([nH]c3ccccc23)[C@H](c2ccc(C(=O)N[C@]34CC5C[C@H](C[C@H](C5)C3)C4)cc2)N1C(=O)CCl
(Q) COC(=O)[C@H]1Cc2c([nH]c3ccccc23)[C@H](c2ccc(O)cc2)N1C(=O)CCl
Kindly identify which of P and Q has the larger recorded Whole Blood Stability % Remaining at 37° C. Human value. # reply format: chosen label P
(P: 96.3%, Q: 61.6%)
